assay: in vivo; format: in vivo, BALB/cAnNCrl mice; conditions: male, BALB/cAnNCrl, mouse, in vivo, iv, 0.0677 umol/kg, iv bolus, individual animals 1-3; read-out: MRT
result.type: MRT (h)
Answer format: numeric, h implied, no suffix.

So what does the record say about MRT for CO[C@H](c1ccccc1)[C@@H]1NC(=O)[C@H](C)NC(=O)[C@H](C[C@@H](C)CO)N(C)C(=O)[C@H](Cc2cn(Cc3cn(CCOCCn4cc(Cn5cc(C[C@@H]6NC(=O)[C@H](C(C)C)NC(=O)[C@H](CC(C)C)N(C)C(=O)[C@H](C(C)C)NC(=O)[C@H]([C@H](OC)c7ccccc7)NC(=O)[C@H](C)NC(=O)[C@H](C[C@@H](C)CO)N(C)C6=O)c6ccccc65)nn4)nn3)c3ccccc23)NC(=O)[C@H](C(C)C)NC(=O)[C@H](CC(C)C)N(C)C(=O)[C@H](C(C)C)NC1=O [Compound 6] ?
3.6

FYI, the data here is from paper PMC10914731.
